Origin of values: ChEMBL document CHEMBL4689842

Parameter: Total Cell Count. Scope: all listed entries.
# Tested on: U2OS
# ASSAY_METHOD_TEXT: Multiplex assay against U2OS
# Assay type: toxicity, cell-based
# TEST_PARAMETERS: human, 24 h, 1 µM, compound concentration 1 uM, replicate 2

For orientation, consider the following solved cases.
CN1CCN(C(=O)C(C)(C)c2ccc(C(=O)Nc3cn4cc(-c5cc(C(C)(C)C)cc(C(C)(C)C)c5)ccc4n3)cc2)CC1 [T3-CLK-N] : 97
CCn1c(=O)c(-c2ccc(-c3cncs3)cc2Cl)cc2cnc(Nc3ccc(N4CCN(C)CC4)cc3)nc21 : 74
O=C1N/C(=N/c2ccccc2F)S/C1=C\c1ccc(C(=O)O)cc1 : 69
COc1cc(N2CCN(C)CC2)ccc1Nc1ncc2c(n1)N(C)c1ccccc1C(=O)N2C : 101
Cc1cc(C)c(S(=O)(=O)N(Cc2ccc(-c3cccc(S(C)(=O)=O)c3)cc2)Cc2ccc(C(F)(F)F)o2)c(C)c1 : 86

// next item, Total Cell Count requested
Reported Total Cell Count for O=C(Nc1cccnn1)N1CCC(=Cc2cccc(Oc3ccc(C(F)(F)F)cn3)c2)CC1 : what is it?
114

* * *

Parameter: Population Mitochondria Different-Phenotype (%). Scope: all listed entries.
# System: HEK-293T
# ASSAY_METHOD_TEXT: Multiplex assay against HEK293T
# Assay type: toxicity, cell-based
# TEST_PARAMETERS: human, 48 h, 10 µM, compound concentration 10 uM, replicate 1
Give your result in % as a bare value.

For orientation, consider the following solved cases.
Cl.Oc1ccc2c3c1O[C@H]1c4[nH]c5c(c4C[C@@]4(O)[C@@H](C2)N(CC2CC2)CC[C@]314)C[C@@]1(O)[C@H]2Cc3ccc(O)c4c3[C@@]1(CCN2CC1CC1)[C@H]5O4 : 23
CCN1CCN(Cc2ccc(Nc3ncc(F)c(-c4cc(F)c5nc(C)n(C(C)C)c5c4)n3)nc2)CC1.CS(=O)(=O)O : 100
O=C1NC(=O)C(c2cnc3ccccn23)=C1c1cn2c3c(cc(F)cc13)CN(C(=O)N1CCCCC1)CC2 : 99
C=C1/C(=C\C=C2/CCC[C@]3(C)[C@@H]([C@H](C)/C=C/[C@H](C)C(C)C)CC[C@@H]23)C[C@@H](O)C[C@@H]1O : 35
CN1CCN(C(=O)C(C)(C)c2ccc(C(=O)Nc3cn4cc(-c5ccncc5)ccc4n3)cc2)CC1 : 94
CCn1c(=O)c(-c2ccc(-c3cncs3)cc2Cl)cc2cnc(Nc3ccc(N4CCN(C)CC4)cc3)nc21 : 84

Reported Population Mitochondria Different-Phenotype (%) for COc1cc(N2CCN(C)CC2)ccc1Nc1ncc2c(n1)N(C)c1ccccc1C(=O)N2C : what is it?
100

Reported Population Mitochondria Different-Phenotype (%) for CN(C)C(=O)C(CCN1CCC(O)(c2ccc(Cl)cc2)CC1)(c1ccccc1)c1ccccc1.Cl [LOPERAMIDE HYDROCHLORIDE] : what is it?
100

Reported Population Mitochondria Different-Phenotype (%) for Cl.O=c1c2cccn2c2ccccc2n1CCCN1CCC(c2ccc(Cl)cc2)CC1 : what is it?
97

Reported Population Mitochondria Different-Phenotype (%) for CCOC(=O)c1c(C)[nH]c2ccc3c(c12)CN1CCc2cc(OC)ccc2C1O3 (stereo unspecified) : what is it?
100

Reported Population Mitochondria Different-Phenotype (%) for COCC(=O)NC/C=C/c1ccc2ncnc(Nc3ccc(Oc4ccc(C)nc4)c(C)c3)c2c1 : what is it?
82

Reported Population Mitochondria Different-Phenotype (%) for O=C(Nc1ccc(-c2ccnc(Nc3ccc(N4CCOCC4)cc3)n2)cc1)[C@@H]1CCCN1 : what is it?
84

Reported Population Mitochondria Different-Phenotype (%) for O=C(Cc1ccc(-c2ccc(OCCN3CCOCC3)cc2)cn1)NCc1ccccc1 : what is it?
66

Reported Population Mitochondria Different-Phenotype (%) for O=C(Nc1ccc(-n2nc(-c3cccnc3)cc2C(F)(F)F)cn1)c1ccc(-c2ccccc2)c(F)c1 : what is it?
52

Reported Population Mitochondria Different-Phenotype (%) for O=C(Nc1ccc(Cl)cc1)Nc1cccc(-c2cccc(N3CCCC3)n2)c1 : what is it?
50

Reported Population Mitochondria Different-Phenotype (%) for Cc1cn(-c2cc(NC(=O)c3ccc(C)c(Nc4nccc(-c5cccnc5)n4)c3)cc(C(F)(F)F)c2)cn1 : what is it?
34

* * *

# Test system: U2OS
# ASSAY_METHOD_TEXT: Multiplex assay against U2OS
# Format: toxicity, cell-based
# TEST_PARAMETERS: human, 24 h, 10 µM, compound concentration 10 uM, replicate 2
VALUE_TYPE: Population Tubulin-Different-Phenotype (%)
Give your result in % as a bare value.

CN1CCN(C(=O)C(C)(C)c2ccc(C(=O)Nc3cn4cc(-c5cc(C(C)(C)C)cc(C(C)(C)C)c5)ccc4n3)cc2)CC1 : 43

Reported Population Tubulin-Different-Phenotype (%) for Cl.O=c1c2cccn2c2ccccc2n1CCCN1CCC(c2ccc(Cl)cc2)CC1 : what is it?
98

Reported Population Tubulin-Different-Phenotype (%) for O=C1NC(=O)C(c2cnc3ccccn23)=C1c1cn2c3c(cc(F)cc13)CN(C(=O)N1CCCCC1)CC2 : what is it?
96

Reported Population Tubulin-Different-Phenotype (%) for Cc1ccc(C(=O)Nc2cccc(C(F)(F)F)c2)cc1Nc1nc(-c2cccnc2)nc2c1cnn2C : what is it?
100

* * *

Parameter: Population Hoechst High Intensity Objects (%). Scope: all listed entries.
# System: U2OS
# ASSAY_METHOD_TEXT: Multiplex assay against U2OS
# Format: toxicity, cell-based
# TEST_PARAMETERS: human, 12 h, 10 µM, compound concentration 10 uM, replicate 1
Give your result in % as a bare value.

For orientation, consider the following solved cases.
COc1cccc2cc(-c3nc([C@H]4CC[C@H](C(=O)O)CC4)n4ncnc(N)c34)[nH]c12 : 10
O=C1NC(=O)C(c2cnc3ccccn23)=C1c1cn2c3c(cc(F)cc13)CN(C(=O)N1CCCCC1)CC2 : 18
CCOc1cc(C(=O)N2CCC(N3CCN(C)CC3)CC2)ccc1Nc1ncc2c(n1)N(C1CCCC1)c1ccccc1C(=O)N2C : 7
CCc1cccc(CC)c1NC(=O)c1nn(C)c2c1CCc1cnc(Nc3ccc(N4CCN(C)CC4)cc3OC)nc1-2 : 2

Reported Population Hoechst High Intensity Objects (%) for CN(C)C(=O)C(CCN1CCC(O)(c2ccc(Cl)cc2)CC1)(c1ccccc1)c1ccccc1.Cl [LOPERAMIDE HYDROCHLORIDE] : what is it?
5

Reported Population Hoechst High Intensity Objects (%) for CN1CCC(=C2c3ccccc3CC(=O)c3sccc32)CC1.O=C(O)/C=C/C(=O)O [KETOTIFEN FUMARATE] : what is it?
5

Reported Population Hoechst High Intensity Objects (%) for CN1CCN(C(=O)C(C)(C)c2ccc(C(=O)Nc3cn4cc(-c5ccncc5)ccc4n3)cc2)CC1 : what is it?
5

* * *

# Test system: Fibroblast
# ASSAY_METHOD_TEXT: Multiplex assay against human fibroblast
# Type: toxicity, cell-based
# TEST_PARAMETERS: 24 h, 1 µM, compound concentration 1 uM, replicate 1
Parameter: Population Mitotic Cells (%). Scope: all listed entries.
Give your result in % as a bare value.

For orientation, consider the following solved cases.
CCCS(=O)(=O)Nc1ccc(F)c(C(=O)c2c[nH]c3ncc(Cl)cc23)c1F : 46
COc1ccc(S(=O)(=O)N(CCO)c2ccccc2CN(C)C/C=C/c2ccc(Cl)cc2)cc1.O=P(O)(O)O : 20
Cc1cn(-c2cc(NC(=O)c3ccc(C)c(Nc4nccc(-c5cccnc5)n4)c3)cc(C(F)(F)F)c2)cn1 : 43
O=C(Nc1ccc(Cl)cc1)Nc1cccc(-c2cccc(N3CCCC3)n2)c1 : 50
CN1CCN(C(=O)C(C)(C)c2ccc(C(=O)Nc3cn4cc(-c5cc(C(C)(C)C)cc(C(C)(C)C)c5)ccc4n3)cc2)CC1 : 26
Cc1ccc(C(=O)Nc2cccc(C(F)(F)F)c2)cc1Nc1nc(-c2cccnc2)nc2c1cnn2C : 33

Reported Population Mitotic Cells (%) for CCCS(=O)(=O)c1nc(NC2CC2)cc(-c2ccc3c(ccn3C3CC(C)(C)NC(C)(C)C3)c2)n1 : what is it?
57

Reported Population Mitotic Cells (%) for Cc1ccc2nc(NCCN)c3ncc(C)n3c2c1.O=C(O)C(F)(F)F.O=C(O)C(F)(F)F : what is it?
35

* * *

# Tested on: U2OS
# ASSAY_METHOD_TEXT: Multiplex assay against U2OS
# Assay type: toxicity, cell-based
# TEST_PARAMETERS: human, 24 h, 10 µM, compound concentration 10 uM, replicate 2
// criterion not met strictly below 10% in Population Fragmented Nuclei (%); criterion met otherwise

Example results:
C=CCn1c(=O)c2cnc(Nc3ccc(N4CCN(C)CC4)cc3)nc2n1-c1cccc(C(C)(C)O)n1 [ADAVOSERTIB] : criterion met
O=C(Cc1ccc(-c2ccc(OCCN3CCOCC3)cc2)cn1)NCc1ccccc1 [TIRBANIBULIN] : criterion met
CCn1cc(-c2ccnc3[nH]c(-c4cccc(CN(C)C)c4)cc23)c(-c2ccc(NC(=O)N(C)C)cc2)n1 [GSK-1070916] : criterion met
Cn1nc(C(F)(F)F)cc1-c1cnc(N2CCc3cc(S(=O)(=O)Nc4c(F)cc(Cl)cc4F)cc(N4CCCC4=O)c32)nc1 [TP-020] : criterion not met
O=C(Nc1ccc(Cl)cc1)Nc1cccc(-c2cccc(N3CCCC3)n2)c1 : criterion met
COc1cccc2cc(-c3nc([C@H]4CC[C@H](C(=O)O)CC4)n4ncnc(N)c34)[nH]c12 [OSI-027] : criterion met
CCOC(=O)c1c(C)[nH]c2ccc3c(c12)CN1CCc2cc(OC)ccc2C1O3 (stereo not drawn) : criterion not met
CN1C2CCC1CC(OC(c1ccc(F)cc1)c1ccc(F)cc1)C2.Cl (stereo not drawn) : criterion met
COC(=N)c1nc2ccc3ncnc(Nc4ccc(OC)cc4F)c3c2s1 : criterion met
S=C(NCCCc1c[nH]cn1)NCCCN(Cc1ccc(Cl)c(Cl)c1)c1ccc(Br)cn1 : criterion met

Check the entry O=C(Nc1ccc(-c2ccnc(Nc3ccc(N4CCOCC4)cc3)n2)cc1)[C@@H]1CCCN1 : does Population Fragmented Nuclei (%) equal or exceed 10%?
criterion met

Check the entry CCc1cccc(CC)c1NC(=O)c1nn(C)c2c1CCc1cnc(Nc3ccc(C(=O)NC4CCN(C)CC4)cc3OC(F)(F)F)nc1-2 : does Population Fragmented Nuclei (%) equal or exceed 10%?
criterion met
